Biological target: Induced myeloid leukemia cell differentiation protein Mcl-1 (Homo sapiens, UniProt Q07820)
Sequence (Q07820 whole entry, the tested form may be a part): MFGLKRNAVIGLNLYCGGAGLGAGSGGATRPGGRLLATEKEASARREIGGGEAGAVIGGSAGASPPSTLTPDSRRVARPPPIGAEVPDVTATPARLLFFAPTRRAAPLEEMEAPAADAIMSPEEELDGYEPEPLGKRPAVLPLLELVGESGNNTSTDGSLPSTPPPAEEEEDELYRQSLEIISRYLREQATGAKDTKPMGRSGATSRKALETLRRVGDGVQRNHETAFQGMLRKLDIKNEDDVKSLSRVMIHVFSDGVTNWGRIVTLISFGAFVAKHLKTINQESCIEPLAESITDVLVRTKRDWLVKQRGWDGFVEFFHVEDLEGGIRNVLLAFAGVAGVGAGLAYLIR
Test: Binding affinity to biotin-labelled TEV-fused GST-tagged MCl-1 (unknown origin) by surface plasmon resonance analysis
Readout Name: Kd
Express your answer as a number followed by its unit.

The value of Kd measured for the compound Cc1cc(C(=O)NC[C@@H](O)c2ccccc2)sc1S(=O)(=O)Nc1cc(C(F)(F)F)ccc1Cl turned out to be 0.165 µM

---

Target: Induced myeloid leukemia cell differentiation protein Mcl-1 (Homo sapiens)
Assay: Inhibition of […]-labelled BID binding to human MCl-1 (171 to 327 residues) expressed in Escherichia coli BL21 (DE3) by fluorescence polarization assay
Readout Name: IC50 (µM)
All answers are understood in µM, so give the number only.

Here is how some compounds turned out for IC50.
Cc1cc(C(=O)NCC(=O)O)sc1S(=O)(=O)Nc1cc(C(F)(F)F)ccc1Cl 0.47
O=C(Nn1cnnc1)c1cccc(S(=O)(=O)Nc2cc(C(F)(F)F)ccc2Cl)c1 19
Cc1cc(C(=O)NCCc2ccc(Oc3ccccc3)cc2)sc1S(=O)(=O)Nc1cc(C(F)(F)F)ccc1Cl 7

Moving on to another compound below.
Entry Cc1cc(C(=O)NCCc2ccccc2)sc1S(=O)(=O)Nc1cc(C(F)(F)F)ccc1Cl — recorded IC50 = 0.81

---

Molecular target: Induced myeloid leukemia cell differentiation protein Mcl-1 (Homo sapiens)
Assay: Inhibition of […]-labelled BID binding to human MCl-1 (171 to 327 residues) expressed in Escherichia coli BL21 (DE3) by fluorescence polarization assay
// values below are reported pIC50
# reply with the number alone; pIC50 is -log10 of concentration in mol/L

Compound	pIC50
Cc1cc2c(cc1S(=O)(=O)Nc1cc(C(F)(F)F)ccc1Cl)OCC(=O)N2	5.74
O=S(=O)(Nc1cc(C(F)(F)F)ccc1Cl)c1c(Cl)cccc1Cl	5.14
COC(=O)[C@@H](Cc1ccccc1)NC(=O)c1cc(C)c(S(=O)(=O)Nc2cc(C(F)(F)F)ccc2Cl)s1	6.84

Lab note: Cc1cc(C(=O)NCCC(=O)O)sc1S(=O)(=O)Nc1cc(C(F)(F)F)ccc1Cl gave pIC50 of 5.46

pIC50 recorded for this compound, Cc1cc(C(=O)NC2(C(=O)O)CC2)sc1S(=O)(=O)Nc1cc(C(F)(F)F)ccc1Cl , is 5.82

---

Target: Induced myeloid leukemia cell differentiation protein Mcl-1 (Homo sapiens)
Test: Inhibition of […]-labelled BID binding to human MCl-1 (171 to 327 residues) expressed in Escherichia coli BL21 (DE3) by fluorescence polarization assay
pIC50: −log10 of the molar value.
Assign class by pIC50: not lower than 6 means Met; lower than 6 means Not met.

Sample answers from the record:
Compound	Label Class
Cc1ccc([N+](=O)[O-])cc1NS(=O)(=O)c1cc(Cl)ccc1Cl	Not met
Cc1cc(C(=O)NC(Cc2ccccc2)C(=O)O)sc1S(=O)(=O)Nc1cc(C(F)(F)F)ccc1Cl (centres undefined)	Met
O=S(=O)(Nc1ccc2ccccc2c1)c1cc(Cl)ccc1Cl	Not met

Q. Exam item: decide whether the reported pIC50 for O=S(=O)(Nc1cc(C(F)(F)F)ccc1Cl)c1ccccc1Cl is at least 6.
A. Not met

Q. Given the entry Cc1cc(C(=O)N[C@H](Cc2ccccc2)C(=O)NCCO)sc1S(=O)(=O)Nc1cc(C(F)(F)F)ccc1Cl , answer whether its pIC50 meets or surpasses 6.
A. Met

---

In this section, each of the compounds is paired with its reported remaining at 0.5 h.
Test: Stability in mouse liver microsomes assessed as parent compound remaining after 30 mins
Assay type: ADME, Microsome
Conditions: read-out: Stability

Cc1cc(C(=O)N[C@H](Cc2ccccc2)C(=O)NS(C)(=O)=O)sc1S(=O)(=O)Nc1cc(C(F)(F)F)ccc1Cl 91%
Cc1cc(C(=O)N[C@H](Cc2ccccc2)C(=O)O)sc1S(=O)(=O)Nc1cc(C(F)(F)F)ccc1Cl 95%
Cc1cc(C(=O)N[C@H](Cc2c[nH]c3ccccc23)C(=O)O)sc1S(=O)(=O)Nc1cc(C(F)(F)F)ccc1Cl 94%

// below: remaining at 0.5 h requested for another compound
Consider Cc1cc(C(=O)N[C@H](Cc2ccccc2)C(=O)NS(=O)(=O)c2ccccc2)sc1S(=O)(=O)Nc1cc(C(F)(F)F)ccc1Cl . Its measured remaining at 0.5 h is 81%

---

Target: Induced myeloid leukemia cell differentiation protein Mcl-1 (Homo sapiens, UniProt Q07820)
Assay: Inhibition of […]-labelled BID binding to human MCl-1 (171 to 327 residues) expressed in Escherichia coli BL21 (DE3) by fluorescence polarization assay
Readout Name: pIC50
Please report pIC50 as the negative decimal logarithm of the molar concentration, giving only the number.

Cc1cc(C(=O)N[C@H](Cc2c[nH]c3ccccc23)C(=O)O)sc1S(=O)(=O)Nc1cc(C(F)(F)F)ccc1Cl 6.68
Cc1cc(C(=O)N2CCCC[C@H]2C(=O)O)sc1S(=O)(=O)Nc1cc(C(F)(F)F)ccc1Cl 6.00
Cc1nn(C)c(Cl)c1S(=O)(=O)Nc1cc(C(F)(F)F)ccc1Cl 4.64

Form field pIC50, entry CN(C)c1ccc(S(=O)(=O)N(C)C)cc1NS(=O)(=O)c1cc(Cl)ccc1Cl : 4.74

get_value(item= Cc1cc(C(=O)N[C@H](COCc2ccccc2)C(=O)O)sc1S(=O)(=O)Nc1cc(C(F)(F)F)ccc1Cl , readout=pIC50) returns 6.51

Note to self: pIC50 recorded for Cc1cc(F)ccc1S(=O)(=O)Nc1cc(C(F)(F)F)ccc1Cl was 5.00

---

Target: Induced myeloid leukemia cell differentiation protein Mcl-1 (Homo sapiens, UniProt Q07820)
Experiment: Inhibition of […]-labelled BID binding to human MCl-1 (171 to 327 residues) expressed in Escherichia coli BL21 (DE3) by fluorescence polarization assay
Readout Name: pIC50
Please report pIC50 as the negative decimal logarithm of the molar concentration, giving only the number.

Worked examples follow.
Cc1cc(C(=O)NS(C)(=O)=O)sc1S(=O)(=O)Nc1cc(C(F)(F)F)ccc1Cl 5.97
Cc1cc(C(=O)N2CCN(C(=O)OC(C)(C)C)C[C@H]2C(=O)O)sc1S(=O)(=O)Nc1cc(C(F)(F)F)ccc1Cl 6.20
Cc1cc(C(=O)N[C@H](Cc2ccccc2)C(=O)O)sc1S(=O)(=O)Nc1cc(C(F)(F)F)ccc1Cl 6.74
Cc1ccccc1S(=O)(=O)Nc1cc(C(F)(F)F)ccc1Cl 4.96
Cc1cc(C(=O)NC[C@H](O)c2ccccc2)sc1S(=O)(=O)Nc1cc(C(F)(F)F)ccc1Cl 6.33

Entry O=S(=O)(Nc1cc(Cl)ccc1Cl)c1cc(Cl)ccc1Cl , Induced myeloid leukemia cell differentiation protein Mcl-1 (Homo sapiens, UniProt Q07820) data, pIC50 value: 4.96

Reported Induced myeloid leukemia cell differentiation protein Mcl-1 (Homo sapiens, UniProt Q07820) pIC50 for item Cc1ccc(F)cc1S(=O)(=O)Nc1cc(C(F)(F)F)ccc1Cl was 5.26

The compound COC(=O)c1cc(C)c(S(=O)(=O)Nc2cc(C(F)(F)F)ccc2Cl)s1 , tested on Induced myeloid leukemia cell differentiation protein Mcl-1 (Homo sapiens, UniProt Q07820), showed pIC50 of 5.72

---

Target: Induced myeloid leukemia cell differentiation protein Mcl-1 (Homo sapiens, UniProt Q07820)
Test: Inhibition of […]-labelled BID binding to human MCl-1 (171 to 327 residues) expressed in Escherichia coli BL21 (DE3) by fluorescence polarization assay
pIC50: −log10 of the molar value.
Each entry gets condition not met if its pIC50 stays under 5, and condition met if its pIC50 is 5 or above.

Record excerpt, results attached:
Compound	Tested Target	Label Class
Cc1cc(C(=O)NC2CCc3ccccc3C2)sc1S(=O)(=O)Nc1cc(C(F)(F)F)ccc1Cl (centres undefined)	Induced myeloid leukemia cell differentiation protein Mcl-1 (Homo sapiens, UniProt Q07820)	condition met
Cc1cc(C(=O)N[C@H](Cc2ccc(-c3ccccc3)cc2)C(=O)O)sc1S(=O)(=O)Nc1cc(C(F)(F)F)ccc1Cl	Induced myeloid leukemia cell differentiation protein Mcl-1 (Homo sapiens, UniProt Q07820)	condition met
Cc1cc(C(=O)N[C@H](Cc2ccccc2)C(N)=O)sc1S(=O)(=O)Nc1cc(C(F)(F)F)ccc1Cl	Induced myeloid leukemia cell differentiation protein Mcl-1 (Homo sapiens, UniProt Q07820)	condition met
O=S(=O)(Nc1ccc(Cl)cc1Cl)c1cc(Cl)ccc1Cl	Induced myeloid leukemia cell differentiation protein Mcl-1 (Homo sapiens, UniProt Q07820)	condition not met
Cc1cc(C(=O)N[C@H](Cc2ccccc2)C(=O)NS(C)(=O)=O)sc1S(=O)(=O)Nc1cc(C(F)(F)F)ccc1Cl	Induced myeloid leukemia cell differentiation protein Mcl-1 (Homo sapiens, UniProt Q07820)	condition met
Cc1cc(C(=O)N[C@H](Cc2ccccc2)c2nnn[nH]2)sc1S(=O)(=O)Nc1cc(C(F)(F)F)ccc1Cl	Induced myeloid leukemia cell differentiation protein Mcl-1 (Homo sapiens, UniProt Q07820)	condition met
Cc1cc(C(=O)NC[C@@H](O)c2ccccc2)sc1S(=O)(=O)Nc1cc(C(F)(F)F)ccc1Cl	Induced myeloid leukemia cell differentiation protein Mcl-1 (Homo sapiens, UniProt Q07820)	condition met
Cc1cc(C(=O)N[C@H](Cc2ccccc2)C(=O)NS(=O)(=O)c2ccccc2)sc1S(=O)(=O)Nc1cc(C(F)(F)F)ccc1Cl	Induced myeloid leukemia cell differentiation protein Mcl-1 (Homo sapiens, UniProt Q07820)	condition met
Cn1ccnc1S(=O)(=O)Nc1cc(C(F)(F)F)ccc1Cl	Induced myeloid leukemia cell differentiation protein Mcl-1 (Homo sapiens, UniProt Q07820)	condition not met
Cc1cc(C(=O)NC(Cc2ccccc2)c2ccccc2)sc1S(=O)(=O)Nc1cc(C(F)(F)F)ccc1Cl (centres undefined)	Induced myeloid leukemia cell differentiation protein Mcl-1 (Homo sapiens, UniProt Q07820)	condition met

Consider the additional compound presented here.
Q. Does Cc1cc(C(=O)N[C@H](Cc2cccnc2)C(=O)O)sc1S(=O)(=O)Nc1cc(C(F)(F)F)ccc1Cl have a reported pIC50 of at least 5?
A. condition met
